Measured protein stability index by item
B1: GNB5 (parent)
chain: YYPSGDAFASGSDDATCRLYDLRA

variants of: B1; experiment: protein stability index of a GFP-peptide fusion (GPS, HEK-293T) (PSI 1-6); higher = more stable; settings: c terminus: a fixed tail appended;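 further: lentivirally expressed fusions sorted by FACS into six bins by GFP to DsRed ratio, PSI derived from sequencing read proportions per bin multiplied by bin number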

Sequence Data: YYPSGDAFASGSDDATCRLYGLRA
protein stability index: 2.2
--
Sequence Data: YYPSGDAFASGSDDATCRLWDLRA
protein stability index: 2.33
--
Sequence Data: NYPSGDAFASGSDDATCRLYDLRA
protein stability index: 3.71
--
Sequence Data: YYYSGDAFASGSDDATCRLYDLRA
protein stability index: 2
--
Sequence Data: YYPSCDAFASGSDDATCRLYDLRA
protein stability index: 3.39
--
Sequence Data: YYPSGDAFASGSDDATNRLYDLRA
protein stability index: 2.8
--
Sequence Data: YYPSGDLFASGSDDATCRLYDLRA
protein stability index: 2.2
--
Sequence Data: YYPSGDAFASGSDDATCRLYDHRA
protein stability index: 3.09
--
Sequence Data: YYPSGMAFASGSDDATCRLYDLRA
protein stability index: 1.92
--
Sequence Data: YYLSGDAFASGSDDATCRLYDLRA
protein stability index: 2.31
--
Sequence Data: YYPSGDAFASGSDDAHCRLYDLRA
protein stability index: 2.37
--
Sequence Data: YYPSGDAFASGSDDATCRLYDLTA
protein stability index: 2.18
--
Sequence Data: EYPSGDAFASGSDDATCRLYDLRA
protein stability index: 3.81
--
Sequence Data: YYPSGDAFASGSDDATRRLYDLRA
protein stability index: 2.62
--
Sequence Data: YYPSGDAFASGSDDKTCRLYDLRA
protein stability index: 2.35
